Tested on: HT29
testDetails: cells
Assay type: cell-based
conditionParameters: Homo sapiens, HT-29, 48 h, HT29, 48 hours exposure, SRB
# label = bin(measured IC (TGI)), where bins are low = under 10 nM, medium = from 10 nM up to 1000 nM, high = 1000 nM and over

Look over these answered cases.
- molecule: "COc1c(C)cc2c(c1O)[C@@H]1C3[C@@H]4SC[C@]5(NCCc6c5[nH]c5ccccc65)C(=O)COC[C@@H](c5c6c(c(C)c(OC(=O)CCCl)c54)OCO6)N3[C@@H](C#N)[C@H](C2)N1C (stereo partly drawn)"
  groupLabel: "high"
- molecule: "COc1c(C)cc2c(c1O)[C@@H]1C3[C@@H]4SC[C@]5(NCCc6c5[nH]c5ccc(F)cc65)C(=O)COC[C@@H](c5c6c(c(C)c(OC(C)=O)c54)OCO6)N3[C@@H](O)[C@H](C2)N1C (stereo partly drawn)"
  groupLabel: "medium"
- molecule: "COc1c(C)cc2c(c1OC(C)(C)C)[C@@H]1C3[C@@H]4SC[C@]5(NCCc6c5[nH]c5ccccc65)C(=O)COC[C@@H](c5c6c(c(C)c(OC(=O)OC(C)(C)C)c54)OCO6)N3[C@@H](O)[C@H](C2)N1C (stereo partly drawn)"
  groupLabel: "medium"
- molecule: "COc1c(C)cc2c(c1O)[C@@H]1C3[C@@H]4SC[C@]5(NCCc6c5[nH]c5ccc(C)cc65)C(=O)COC[C@@H](c5c6c(c(C)c(OC(C)=O)c54)OCO6)N3[C@@H](O)[C@H](C2)N1C (stereo partly drawn)"
  groupLabel: "low"

Which class holds COc1c(C)cc2c(c1O)[C@@H]1C3[C@@H]4SC[C@]5(NCCc6c5[nH]c5ccccc65)C(=O)COC[C@@H](c5c6c(c(C)c(OC(=O)OC(C)(C)C)c54)OCO6)N3[C@@H](O)[C@H](C2)N1C (stereo partly drawn) ?
medium

Similarly, COc1c(C)cc2c(c1O)[C@@H]1C3[C@@H]4SC[C@]5(NCCc6c5[nH]c5ccc(OCc7ccccc7)cc65)C(=O)COC[C@@H](c5c6c(c(C)c(OC(C)=O)c54)OCO6)N3[C@@H](O)[C@H](C2)N1C (stereo partly drawn) ?
medium

Also check COc1c(C)cc2c(c1O)[C@@H]1C3[C@@H]4SC[C@]5(NCCc6c5[nH]c5ccccc65)C(=O)COC[C@@H](c5c6c(c(C)c(OC(=O)C(F)(F)C(F)(F)C(F)(F)F)c54)OCO6)N3[C@@H](C#N)[C@H](C2)N1C (stereo partly drawn)
high

Repeat for the following molecule: C=CCOc1c(OC)c(C)cc2c1[C@@H]1C3[C@@H]4SC[C@]5(NCCc6c5[nH]c5ccccc65)C(=O)COC[C@@H](c5c6c(c(C)c(OC(C)=O)c54)OCO6)N3[C@@H](C#N)[C@H](C2)N1C (stereo partly drawn)
high

# repeat for CCCC(=O)Oc1c(C)c2c(c3c1[C@H]1SC[C@]4(NCCc5c4[nH]c4ccccc54)C(=O)COC[C@@H]3N3C1[C@H]1c4c(cc(C)c(OC)c4O)C[C@@H]([C@@H]3C#N)N1C)OCO2 (stereo partly drawn)
high

Another molecule to check: COc1c(C)cc2c(c1O)[C@@H]1C3[C@@H]4SC[C@]5(NCCc6c5[nH]c5ccc(F)cc65)C(=O)COC[C@@H](c5c6c(c(C)c(OC(C)=O)c54)OCO6)N3[C@@H](C#N)[C@H](C2)N1C (stereo partly drawn)
high

Entry to check: COc1c(C)cc2c(c1O)[C@@H]1C3[C@@H]4SC[C@]5(NCCc6c5[nH]c5ccc(O)cc65)C(=O)COC[C@@H](c5c6c(c(C)c(OC(C)=O)c54)OCO6)N3[C@@H](O)[C@H](C2)N1C (stereo partly drawn)
low

Now this one: COc1c(C)cc2c(c1O)[C@@H]1C3[C@@H]4SC[C@]5(NCCc6c5[nH]c5ccc(C)cc65)C(=O)COC[C@@H](c5c6c(c(C)c(OC(C)=O)c54)OCO6)N3[C@@H](C#N)[C@H](C2)N1C (stereo partly drawn)
medium
